# tested target: T1, huCD33 R69G variant (human, UniProt P20138 18-364)
# T1 construct: also called G69 CD33; SNP R69G (r2455069)
# T1 sequence (P20138 18-364 R69G): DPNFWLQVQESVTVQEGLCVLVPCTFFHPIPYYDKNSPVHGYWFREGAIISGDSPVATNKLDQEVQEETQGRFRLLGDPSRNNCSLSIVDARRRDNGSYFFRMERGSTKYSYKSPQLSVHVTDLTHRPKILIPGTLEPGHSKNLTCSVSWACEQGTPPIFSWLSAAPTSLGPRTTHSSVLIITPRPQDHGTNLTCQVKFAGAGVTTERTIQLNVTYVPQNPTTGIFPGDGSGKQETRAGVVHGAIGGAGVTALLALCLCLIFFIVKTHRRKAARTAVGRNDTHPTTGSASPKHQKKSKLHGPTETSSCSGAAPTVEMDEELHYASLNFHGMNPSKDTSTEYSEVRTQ
# protocol text: FACS, direct Dylight 488 conjugate, on 293AD cells labelled 'SNPG69R', taken as the SNP variant of paragraph 650
# Geom. Mean:FL1-H per record follows
Provide a numeric answer; units are not to be included.

// known answers, use as guide
IN: Which measured Geom. Mean:FL1-H value corresponds to 33H4 (antibody, V domains shown) VH: EVQLQQSGAELVKPGASVKMSCKAFGYTFTTFPIEWMKQSHGKSLEWIGNFHPYNDQTKYNEEFKGRAKLTIDRSSSTVYLELGRLTSDDSAVYYCARGYYYAFDFWGQGTTLTVSS VL: DIQMTQSPASLTVSLGQRATISCRASESVDSYGNSYLHWYQQKPGQPPQLLIYLASNLESGVPARFSGSGSRTDFTLTIDPVEADDAATYYCQQNNEDPWTFGGGTKVEIK ?
OUT: 78.7

IN: Which measured Geom. Mean:FL1-H value corresponds to 23E4 (antibody, V domains shown) VH: EVQLQQSGAELVRPGASVKLSCKASGYTFTNYWMNWVKQRPGQGLEWIGMIDPSDNETHYSQMFKDKATLTVDKSSSTAYMQLISLTSEDSAVYYCAGYYGNFGWFVYWGQGTLVTVSA VL: DIFMTQTPLSLPVSLGDPASISCRSSQTIVHSNGNTYLEWYLQKPGQSPKLLIYKVSNRFSGVPDRFSGSGSGTDFTLKISRVEAEDLGVYYCFQGSHVPPTFGGGTKVEIK ?
OUT: 50.1

IN: Which measured Geom. Mean:FL1-H value corresponds to 27C6 (antibody, V domains shown) VH: EVQLQQSGPELVKPGASVKVSCKASGYAFTSYNMYWVKQSHGKSLEWIGYIDPYNGGTRHNQKFKDKATLTVDKSSSTAYMHLNSLTSEDSAVYYCASQNYEYFDYWGQGTTLTVSS VL: DIVLTQSPKFMSTSVGDRVSITCKASQDVGDAVAWYQQKPGQSPKLLFYWTSTRHTGVPDRFTGSGSGTEFTLTIRNVQSEDLADYFCQQYRSTPLTFGSGTKVEIK ?
OUT: 32.3

Turning now to a further binder:
IN: Which measured Geom. Mean:FL1-H value corresponds to 33F9 (antibody, V domains shown) VH: EVQLQQSGPELVKPGASVKMSCKASGYTFTSYVMHWMKQKPGQGLEWIGYINPYNDGTKYNDKFKGKATLTSDKSSSTAYMELSSLTSEDSAVYYCARGSNYEDFAMDYRGQGTSVTVSS VL: DIVMTQSPASQSASLGESVTITCLASQTIGTWLAWYQQKPGKSPQLLIYAATTLADGVPSRFSGSGSGTKFSFKISSLQAEDFVSYYCQQLYSTPLTFGGGTKVEIK ?
OUT: 85.2
